molecular target: Luciferin 4-monooxygenase (Photinus pyralis); test: qHTS of Nrf2 Activators: Hit Validation in Secondary FLuc Assay; settings: firefly luciferase inhibition counter-screen, luminescence; series mostly up to 57.5 µM; note: nearly all actives have a fitted effect of over 65% in size; note: potency is the fitted concentration of half-maximal effect
Among all 1,100 compounds or so, about 390 (35%) were called active. About 30% were inconclusive and are not listed. Some of the results follow.
readout type: Potency

>>> print(df.to_string())
                                    compound             result
 0   O=c1cc(-c2ccco2)nc(SCc2cccc(Cl)c2)[nH]1           inactive
 1  COc1ccc(Cl)cc1NC(=O)CSc1c2c(nc3ccccc13)CCC2           inactive
 2  N#Cc1c(NC(=O)c2ccc([N+](=O)[O-])o2)sc2c1CCC2   1.69 µM (active)
 3      COc1ccccc1NC(=O)CSc1ccc(-c2ccco2)nn1   15.1 µM (active)
 4  O=C(NCC1CCCO1)c1ccc([N+](=O)[O-])o1 (centres undefined)           inactive
 5  Cc1cc(NC(=O)CC(C)(C)C)nc2c1c(=O)oc1ccccc12           inactive
 6         O=C(Nc1cc(Cl)ccc1-n1cncn1)c1ccco1           inactive
 7             C=CCSc1nccc(-c2cc(Cl)sc2Cl)n1           inactive
 8            c1ccc(CSc2nccc(-c3ccco3)n2)cc1     12 µM (active)
 9  COc1ccc(NC(=O)CSc2ccc(-c3ccco3)nn2)cc1OC   15.1 µM (active)
10   COc1ccc(NC(=O)c2cc(-c3ccco3)on2)c(OC)c1           inactive
11         CC(=O)Oc1c(-c2ccco2)oc2ccccc2c1=O           inactive
12  O=C(Nc1ccc(N2CCN(C(=O)c3ccc(Cl)cc3)CC2)cc1)c1ccc([N+](=O)[O-])o1           inactive
13      NC(=O)N/N=C/c1ccccc1OC(=O)c1ccccc1Br   10.7 µM (active)
14  COc1cc(Cl)cc(/C=C/c2ccc3cccc(O)c3n2)c1OC   9.53 µM (active)
15      CC(C)=NNc1cnnc2ccc([N+](=O)[O-])cc12   10.7 µM (active)
16  Cc1nn(C)c(C)c1/C=C(/C(=O)C(C)(C)C)n1cncn1           inactive
17  COc1cccc(C(=O)Oc2ccccc2/C=C\C(=O)c2cc3ccccc3o2)c1   1.51 µM (active)
18           O=C(Nc1nc(-c2ccncc2)cs1)c1ccco1     12 µM (active)
19  COc1ccc(-c2cc3ccccc3oc2=O)cc1NC(=O)c1ccc([N+](=O)[O-])o1           inactive
20  O=S1(=O)C=C(Sc2nc3cc(Cl)ccc3o2)c2ccccc21  0.849 µM (active)
21       Oc1ccc(Cl)cc1/C=C/c1ccc2cccc(O)c2n1   9.53 µM (active)
22  O=C(Oc1ccccc1/C=C\C(=O)c1cc2ccccc2o1)c1ccccc1   1.07 µM (active)
23        O=C(CSc1ccc(-c2ccco2)nn1)N1CCCCCC1   16.9 µM (active)

----------
Biological target: Luciferin 4-monooxygenase (Photinus pyralis) (UniProt P08659)
Test: qHTS of Nrf2 Activators: Hit Validation in Secondary FLuc Assay; note: nearly all actives have a fitted effect of over 65% in size
Conditions: firefly luciferase inhibition counter-screen, luminescence; series mostly up to 57.5 µM
Description: Many diseases have some form of oxidative stress injury and ties to inflammation, causing a host of problems for the patient. The antioxidant response element (ARE) plays an important role in alleviating the harmful effects of oxidative stress. The antioxidant response element (ARE) is a transcriptional regulatory element involved in the activation of genes coding for a number of antioxidant proteins and detoxifying enzymes. […]
Screen size: about 1,100 compounds; about 390 (35%) were called active. Another 30% or so got no clear call; they are omitted. Calls come from the whole dose curve; as a rule, active = well fitted inhibition curve with a large enough effect; inconclusive = small, poorly fitted or top-dose-only effect; inactive = flat fitted curve, though single readings scatter. This is one part of the list.
Possible outcomes: active, inactive

>>> print(df.to_string())
                                    compound     group
 0   Cc1csc2c(=O)sc(NC(=O)c3ccc(F)cc3Cl)nc12  inactive
 1                  C/C(=N\Nc1ccccn1)c1cccs1    active
 2            CCn1c(=O)oc2cc(NC(=O)CCl)ccc21  inactive
 3  O=C(CSc1nccc(-c2cccs2)n1)Nc1ccc(F)c(Cl)c1  inactive
 4  CC1CCN(CC2C(=O)O[C@@H]3C[C@@]4(C)CCC[C@H](C)C4=C[C@H]23)CC(C)(C)C1 (stereo not given in full)  inactive
 5        Cc1csc2nc(NC(=O)c3ccccc3)sc(=O)c12    active
 6               COc1ccccc1C=Cc1ccnc2ccccc12    active
 7   CC(=O)Oc1ccc(-c2nc3c(C)cccc3c(=O)o2)cc1  inactive
 8            CSc1nsc(SC)c1C(=O)Nc1ccc(C)cc1  inactive
 9  O=C(Nc1c(Br)cc2c(c1Br)Cc1ccccc1-2)C(F)(F)F  inactive
10      O=C(Nc1ccc(Br)c(C(F)(F)F)c1)c1ccccc1    active
11  Cc1ccc(S(=O)(=O)c2nc(S(C)(=O)=O)sc2N2CCCCC2C)cc1 (stereo not given)  inactive
12            c1coc(CSc2ncnc3c2oc2ccccc23)c1    active
13  CN1CCN(CCCNC(=O)c2cc3c(=O)n(C)c4ccccc4c3s2)CC1  inactive
14                C#CCSc1nc(-c2cccs2)ccc1C#N  inactive
15          c1ccc(-c2cc3c(ccc4nonc43)nn2)cc1  inactive
16              c1ccc2nc3c(ccc4ccccc43)cc2c1    active
17  O=C(COc1cccnc1[N+](=O)[O-])Nc1cccc2ccccc12  inactive
18          O=C(Nc1nc(=O)c2ccccc2s1)c1ccccc1    active
19      Cc1ccc2ccc(C3C(=O)c4ccccc4C3=O)nc2c1    active
20  COC(=O)[C@@H]1Cc2c([nH]c3ccccc23)C(C)(C)N1C(=O)CCl  inactive
21       Cc1nc([N+](=O)[O-])c(Br)n1Cc1ccccc1  inactive
22         N#Cc1c(-c2ccco2)cc(-c2ccccn2)nc1N    active
23         C/C(=N\Nc1ccc2nncn2n1)c1ccc(Cl)s1  inactive
24  CC(=O)OC1(C(C)=O)CCC2C3CC(C(F)(F)F)C4=CC(=O)CCC4(C)C3CCC21C (stereo not given)  inactive
25  COc1ccc(S(=O)(=O)NCCc2csc3nc(-c4ccc(Cl)cc4)nn23)cc1C  inactive
26  CC(=O)N1CCc2c(sc(NC(=O)CCS(=O)(=O)c3ccccc3)c2C#N)C1  inactive
27    O=C1N/C(=C\c2ccsc2)C(=O)N1Cc1ccc(F)cc1  inactive
28       Cn1c(=O)c2nc(NCc3ccccc3)sc2n(C)c1=O  inactive
29        CCn1c(=N)n(CC(=O)c2ccco2)c2ccccc21  inactive
30          Clc1cc(-c2ccccc2)nc(-c2ccccc2)n1  inactive
31               N#Cc1nc(-c2ccco2)oc1N1CCCC1  inactive
32           COc1ccc(-c2cc3ccccc3c(=O)o2)cc1    active
33            c1ccc(-c2cnc(-c3ccccc3)nn2)cc1    active
34      N#C/C(=C(/O)c1ccco1)c1nc2ccccc2[nH]1    active
